Numbers sourced from paper PMC5818190.

biological target: human α7 nAChR (Homo sapiens); construct: full-length receptor, cRNA from pMXT vector, Xenopus laevis oocytes; homomeric pentamer; assay: two-electrode voltage clamp, Xenopus oocytes
Sequence (P36544 23-502): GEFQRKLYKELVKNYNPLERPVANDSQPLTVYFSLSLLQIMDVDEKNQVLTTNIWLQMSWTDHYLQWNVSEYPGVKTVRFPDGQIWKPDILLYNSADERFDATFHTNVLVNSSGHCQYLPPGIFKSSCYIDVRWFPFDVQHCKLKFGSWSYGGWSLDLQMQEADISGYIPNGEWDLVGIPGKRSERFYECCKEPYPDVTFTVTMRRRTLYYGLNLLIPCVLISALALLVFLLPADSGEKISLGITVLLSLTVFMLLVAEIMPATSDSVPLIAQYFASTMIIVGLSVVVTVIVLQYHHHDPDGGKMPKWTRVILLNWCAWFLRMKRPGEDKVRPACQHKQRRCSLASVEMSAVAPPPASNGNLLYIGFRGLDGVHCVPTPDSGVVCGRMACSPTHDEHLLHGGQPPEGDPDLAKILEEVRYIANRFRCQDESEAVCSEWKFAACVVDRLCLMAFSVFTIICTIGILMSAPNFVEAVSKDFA
MEASURED_QUANTITY: IC50 (µM)
Entry rule: numbers only, all in µM.

**Query** What does the data say about its IC50? Entry: O=C(Nc1ccc(Br)cn1)[C@@H]1CCCNC1
**Result** 26.7
